System: corn (Zea mays)
Test: Test G Post-Emergence Protocol
Type: in vivo
Settings: Zea mays, post-emergence, 312 h, 250 g ai/ha, evaluated after 13 days, read-out: damage to plant, Corn (100=total damage to plant; 0=no damage to plant)

compound: Cc1nc(C(F)(F)F)ccc1NC(=O)[C@@H]1C(=O)N(C)C[C@H]1c1ccc(C(F)(F)F)cc1 (racemic)
units of measure: %
plant injury at 250 g/ha: 0
--
compound: CN1C[C@@H](c2ccc(C(F)(F)F)cc2)[C@H](C(=O)Nc2ccnc(F)c2)C1=O (racemic)
units of measure: %
plant injury at 250 g/ha: 0
--
compound: Cc1ccc([C@H]2CN(C)C(=O)[C@@H]2C(=O)Nc2ccc(F)nc2F)cc1
units of measure: %
plant injury at 250 g/ha: 80
--
compound: CN1C[C@H](c2ccc(C(F)(F)F)cc2)[C@@H](C(=O)Nc2ccc(C(F)(F)F)cc2F)C1=O (racemic)
units of measure: %
plant injury at 250 g/ha: 10
--
compound: CN1C[C@@H](c2ccc(C(F)(F)F)cc2)[C@H](C(=O)Nc2ccncc2Cl)C1=O (racemic)
units of measure: %
plant injury at 250 g/ha: 20
--
compound: Cc1cc(NC(=O)[C@@H]2C(=O)N(C)C[C@H]2c2ccc(C(F)(F)F)cc2)sn1 (racemic)
units of measure: %
plant injury at 250 g/ha: 0
--
compound: CN1C[C@@H](c2ccc(C(F)(F)F)cc2)[C@H](C(=O)Nc2csc(C(F)(F)F)n2)C1=O (racemic)
units of measure: %
plant injury at 250 g/ha: 0

----------
Measured pest or weed control at 500 g/ha, listed per entry for reference.
Tested on: giant foxtail (Setaria faberii)
Test: Test A postemergence
Type: in vivo
Conditions: Setaria faberi, post-emergence, 240 h, 500 g ai/ha, postemergence; 0 to 100 scale, 0 is no effect, 100 is complete control; read-out: Foxtail, Giant plant response rating
property label: pest or weed control at 500 g/ha (%)

compound: Cc1cc([C@H]2CN(C)C(=O)[C@@H]2C(=O)Nc2ccccc2F)ccc1Br [Compound 1098]
property label: pest or weed control at 500 g/ha
units of measure: %
quantitative result: 90
--
compound: COc1ccc([C@H]2CN(C)C(=O)[C@@H]2C(=O)Nc2ccccc2F)c(OC)c1 [Compound 1215]
property label: pest or weed control at 500 g/ha
units of measure: %
quantitative result: 90
--
compound: COc1cc([C@H]2CN(C)C(=O)[C@@H]2C(=O)Nc2ccccc2F)cc(OC)c1OC [Compound 1217]
property label: pest or weed control at 500 g/ha
units of measure: %
quantitative result: 90

----------
System: oilseed rape (Brassica napus)
Assay: Test C preemergence
Format: in vivo
Conditions: 125 g ai/ha, scale 0 to 100, 0 no effect, 100 complete control
property label: Plant response rating, Oilseed Rape

molecule: CN1CC(c2ccc(C(F)(F)F)cc2)C(C(=S)Nc2ccccc2F)C1=O (stereo not drawn)
quantitative result: 20

molecule: CN1CC(c2cccc(OC(F)(F)C(F)F)c2)C(C(=O)Nc2ccc(F)cc2F)C1=O (stereo not drawn)
quantitative result: 80

molecule: Cc1cccc(C2CN(C)C(=O)C2C(=O)Nc2cccc(F)c2F)c1 (stereo not drawn)
quantitative result: 85

molecule: CN1CC(c2ccc(C(F)(F)F)c(F)c2)C(C(=O)Nc2ccccc2S(C)(=O)=O)C1=O (stereo not drawn)
quantitative result: 80

molecule: CN1CC(c2cccc(C(F)(F)F)c2)C(C)(C(=O)Nc2ccccc2F)C1=O (stereo not drawn)
quantitative result: 0

molecule: CN1CC(c2cccc(C(F)(F)F)c2)C(C(=O)Nc2ccccc2S(C)(=O)=O)C1=O (stereo not drawn)
quantitative result: 85
